Where these numbers come from: patent US20220153782A1

- Measurement notes: in vitro
- Condition description: human, BBB permeability
Where a SMILES comes first, the peptide text is derived from it. [ ]: non-standard residue; d: D form. The star is where a group is joined. ξ: configuration not given here. Myristoyl = CCCCCCCCCCCCCC(=O)*; dThr(3ξ) = CC(O)[C@@H](N)C(=O)O; Lauroyl = CCCCCCCCCCCC(=O)*; ξIle = CC[C@H](C)C(N)C(=O)O
Measured metric: Papp at 200 μM

compound="CCCCCCCCCCCCCC(=O)N[C@@H](CCC(N)=O)C(=O)N[C@@H](Cc1c[nH]cn1)C(=O)N[C@@H](CO)C(=O)N[C@@H](CCC(N)=O)C(=O)N[C@H](C(=O)N[C@H](C(=O)N[C@@H](CCCCN)C(=O)N[C@H](C(=O)O)C(C)C)[C@@H](C)O)[C@@H](C)CC (Myristoyl-QHSQITKV-OH; C-terminus assumed)" measured_metric="Papp at 200 μM" measured="< 3.77 ×10⁻⁶ cm/s"
compound="CCCCCCCCCCCC(=O)N[C@@H](CCC(N)=O)C(=O)N[C@H](Cc1c[nH]cn1)C(=O)N[C@@H](CO)C(=O)N[C@H](CCC(N)=O)C(=O)NC(C(=O)N[C@@H](C(=O)N[C@@H](CCCCN)C(=O)N[C@@H](C(=O)O)C(C)C)C(C)O)[C@@H](C)CC (stereo partly drawn) (Lauroyl-Q[dH]S[dQ][ξIle][dThr(3ξ)]K[dV]-OH)" measured_metric="Papp at 200 μM" measured="> 3.77 ×10⁻⁶ cm/s"
compound="CCCCCCCCCCCCCC(=O)N[C@@H](CCC(N)=O)C(=O)N[C@@H](Cc1c[nH]cn1)C(=O)N[C@H](C(=O)N[C@@H](CCC(N)=O)C(=O)N[C@H](C(=O)N[C@H](C(=O)N[C@@H](CCCCN)C(=O)N[C@H](C(=O)O)C(C)C)[C@@H](C)O)[C@@H](C)CC)[C@@H](C)O (Myristoyl-QHTQITKV-OH; C-terminus assumed)" measured_metric="Papp at 200 μM" measured="2.63 to 5.57 ×10⁻⁶ cm/s"

----------
List of half-life values.
- Measurement notes: Stability in simulated intestinal fluid
- Format: in vitro ADME
- Condition description: one phase decay, read-out: t1/2 (min)
Where a SMILES comes first, the peptide text is derived from it. [ ]: non-standard residue; d: D form. The star is where a group is joined. ξ: configuration not given here. Myristoyl = CCCCCCCCCCCCCC(=O)*; dThr(3ξ) = CC(O)[C@@H](N)C(=O)O; Lauroyl = CCCCCCCCCCCC(=O)*; ξIle = CC[C@H](C)C(N)C(=O)O
Measured metric: half-life (min)

compound="CCCCCCCCCCCCCC(=O)N[C@@H](CCC(N)=O)C(=O)N[C@@H](Cc1c[nH]cn1)C(=O)N[C@@H](CO)C(=O)N[C@@H](CCC(N)=O)C(=O)N[C@H](C(=O)N[C@H](C(=O)N[C@@H](CCCCN)C(=O)N[C@H](C(=O)O)C(C)C)[C@@H](C)O)[C@@H](C)CC (Myristoyl-QHSQITKV-OH; C-terminus assumed)" quantity_unit=min measured=271
compound="CCCCCCCCCCCC(=O)N[C@@H](CCC(N)=O)C(=O)N[C@H](Cc1c[nH]cn1)C(=O)N[C@@H](CO)C(=O)N[C@H](CCC(N)=O)C(=O)NC(C(=O)N[C@@H](C(=O)N[C@@H](CCCCN)C(=O)N[C@@H](C(=O)O)C(C)C)C(C)O)[C@@H](C)CC (some centres unmarked) (Lauroyl-Q[dH]S[dQ][ξIle][dThr(3ξ)]K[dV]-OH)" quantity_unit=min measured=178

----------
- Measurement notes: Brain stability (brain homogenate)
- Assay type: in vitro ADME, mouse
- Condition description: mouse, brain homogenate, brain, one phase decay; read-out: t1/2 (h)
Where a SMILES comes first, the peptide text is derived from it. [ ]: non-standard residue; d: D form. The star is where a group is joined. ξ: configuration not given here. Myristoyl = CCCCCCCCCCCCCC(=O)*; dThr(3ξ) = CC(O)[C@@H](N)C(=O)O; Lauroyl = CCCCCCCCCCCC(=O)*; ξIle = CC[C@H](C)C(N)C(=O)O
Measured metric: half-life (h)

compound="CCCCCCCCCCCCCC(=O)N[C@@H](CCC(N)=O)C(=O)N[C@@H](Cc1c[nH]cn1)C(=O)N[C@@H](CO)C(=O)N[C@@H](CCC(N)=O)C(=O)N[C@H](C(=O)N[C@H](C(=O)N[C@@H](CCCCN)C(=O)N[C@H](C(=O)O)C(C)C)[C@@H](C)O)[C@@H](C)CC (Myristoyl-QHSQITKV-OH; C-terminus assumed)" measured=0.255
compound="CCCCCCCCCCCCCC(=O)N[C@@H](CCC(N)=O)C(=O)N[C@@H](Cc1c[nH]cn1)C(=O)N[C@H](C(=O)N[C@@H](CCC(N)=O)C(=O)N[C@H](C(=O)N[C@H](C(=O)N[C@@H](CCCCN)C(=O)N[C@H](C(=O)O)C(C)C)[C@@H](C)O)[C@@H](C)CC)[C@@H](C)O (Myristoyl-QHTQITKV-OH; C-terminus assumed)" measured=0.165
compound="CCCCCCCCCCCC(=O)N[C@@H](CCC(N)=O)C(=O)N[C@H](Cc1c[nH]cn1)C(=O)N[C@@H](CO)C(=O)N[C@H](CCC(N)=O)C(=O)NC(C(=O)N[C@@H](C(=O)N[C@@H](CCCCN)C(=O)N[C@@H](C(=O)O)C(C)C)C(C)O)[C@@H](C)CC (stereo partly drawn) (Lauroyl-Q[dH]S[dQ][ξIle][dThr(3ξ)]K[dV]-OH)" measured=0.365

----------
Recorded half-life values for a group of compounds are listed next.
- Measurement notes: Plasma stability (mouse)
- Assay type: in vitro ADME
- Condition description: mouse, plasma, one phase decay, read-out: t1/2 (h)
- Source text: N, 3 independent experiments. Plasma stability. […] Based on the higher lipophilicity of myristoylated peptides, dodecanoyl peptides are expected to be less protein bound and a higher percentage of the peptide will be available for permeation across biological barriers such as the BBB (only free fraction is available for transport). Thus, Dodecanoyl-[…] is a likely candidate for further development.
Where a SMILES comes first, the peptide text is derived from it. [ ]: non-standard residue; d: D form. The star is where a group is joined. ξ: configuration not given here. Myristoyl = CCCCCCCCCCCCCC(=O)*; dThr(3ξ) = CC(O)[C@@H](N)C(=O)O; Lauroyl = CCCCCCCCCCCC(=O)*; ξIle = CC[C@H](C)C(N)C(=O)O
Measured metric: half-life (h)

compound="CCCCCCCCCCCC(=O)N[C@@H](CCC(N)=O)C(=O)N[C@H](Cc1c[nH]cn1)C(=O)N[C@@H](CO)C(=O)N[C@H](CCC(N)=O)C(=O)NC(C(=O)N[C@@H](C(=O)N[C@@H](CCCCN)C(=O)N[C@@H](C(=O)O)C(C)C)C(C)O)[C@@H](C)CC (stereo partly drawn) (Lauroyl-Q[dH]S[dQ][ξIle][dThr(3ξ)]K[dV]-OH)" quantity_unit=h measured=0.151
compound="CCCCCCCCCCCCCC(=O)N[C@@H](CCC(N)=O)C(=O)N[C@@H](Cc1c[nH]cn1)C(=O)N[C@@H](CO)C(=O)N[C@@H](CCC(N)=O)C(=O)N[C@H](C(=O)N[C@H](C(=O)N[C@@H](CCCCN)C(=O)N[C@H](C(=O)O)C(C)C)[C@@H](C)O)[C@@H](C)CC (Myristoyl-QHSQITKV-OH; C-terminus assumed)" quantity_unit=h measured=0.869
compound="CCCCCCCCCCCCCC(=O)N[C@@H](CCC(N)=O)C(=O)N[C@@H](Cc1c[nH]cn1)C(=O)N[C@H](C(=O)N[C@@H](CCC(N)=O)C(=O)N[C@H](C(=O)N[C@H](C(=O)N[C@@H](CCCCN)C(=O)N[C@H](C(=O)O)C(C)C)[C@@H](C)O)[C@@H](C)CC)[C@@H](C)O (Myristoyl-QHTQITKV-OH; C-terminus assumed)" quantity_unit=h measured=0.112

----------
- Measurement notes: Liver stability (liver homogenate)
- Type: in vitro ADME, mouse
- Condition description: mouse, liver homogenate, liver, two phase decay, slow; read-out: t1/2 (h) (slow) (converted)
Where a SMILES comes first, the peptide text is derived from it. The star is where a group is joined. Myristoyl = CCCCCCCCCCCCCC(=O)*
Measured metric: half-life (h)

compound="CCCCCCCCCCCCCC(=O)N[C@@H](CCC(N)=O)C(=O)N[C@@H](Cc1c[nH]cn1)C(=O)N[C@H](C(=O)N[C@@H](CCC(N)=O)C(=O)N[C@H](C(=O)N[C@H](C(=O)N[C@@H](CCCCN)C(=O)N[C@H](C(=O)O)C(C)C)[C@@H](C)O)[C@@H](C)CC)[C@@H](C)O (Myristoyl-QHTQITKV-OH; C-terminus assumed)" measured=1510
